Origin of measurements: paper PMC4777266

Exercise: state measured concentration at 8 h for each of the compounds provided.
# experimentSummary: Plasma metabolite profiles
# Format: in vivo, male CD‐1 mice
# experimentalContext: male, CD-1, mouse, plasma, iv, 1 mg/kg
Answers are plain numbers, in nM.

Consider the following illustrative entries.
> print(dat)
                                   compound  recordedvalue
1  Nc1cc[nH]c(=O)n1 [Metabolite M2, cytosine]           11.1
2  O=c1ccn([C@@H]2O[C@H](CO)[C@@H](O)[C@H]2O)c(=O)[nH]1 [Metabolite M1, uridine]           43.4
3  CO[C@@H]1[C@H](O)[C@@H](CO)O[C@H]1n1ccc(=O)[nH]c1=O            3.6

Pending compound:
Request: I'd like to know its concentration at 8 h. The compound in question is O=c1cc[nH]c(=O)[nH]1 [Metabolite M3, uracil]
Result: 36.8

----------
# experimentSummary: Plasma metabolite profiles
# Format: in vivo, male CD‐1 mice
# experimentalContext: male, CD-1, mouse, plasma, iv, 1 mg/kg
Task for the reader: assign each of the following molecules its reported concentration at 0.5 h.
# output: numeric value plus its unit

> print(dat)
                                   molecule       attributemeasured  recordedvalue
1  CO[C@@H]1[C@H](O)[C@@H](CO)O[C@H]1n1ccc(=O)[nH]c1=O  concentration at 0.5 h         119 nM

For each of the molecules below, note its concentration at 0.5 h.
1. Nc1cc[nH]c(=O)n1 [Metabolite M2, cytosine]
2. O=c1cc[nH]c(=O)[nH]1 [Metabolite M3, uracil]
3. O=c1ccn([C@@H]2O[C@H](CO)[C@@H](O)[C@H]2O)c(=O)[nH]1 [Metabolite M1, uridine]
4. Nc1ccn([C@@H]2O[C@H](CO)[C@@H](O)[C@H]2O)c(=O)n1 [Metabolite M5, cytidine]

Result:
38.9 nM
144 nM
170 nM
44 nM

----------
# experimentSummary: Plasma metabolite profiles
# Format: in vivo, male CD‐1 mice
# experimentalContext: male, CD-1, mouse, plasma, iv, 1 mg/kg
attributeMeasured: concentration at 24 h (nM)
Answers are plain numbers, in nM.

Consider the following illustrative entries.
> print(dat)
                                   compound  recordedvalue
1  O=c1cc[nH]c(=O)[nH]1 [Metabolite M3, uracil]           14.5
2  Nc1cc[nH]c(=O)n1 [Metabolite M2, cytosine]            5.7

Please turn your attention to the following entry.
Request: # lookup: concentration at 24 h of O=c1ccn([C@@H]2O[C@H](CO)[C@@H](O)[C@H]2O)c(=O)[nH]1 [Metabolite M1, uridine]
Result: 26.9

----------
Give measured Amount of radiolabeled component, total excretion (urine + feces) for each item. Keep answers brief.
# experimentSummary: Excretion and mass balance
# Assay type: in vivo, male CD‐1 mice
# experimentalContext: 0–48 h; single iv 1 mg/kg, average of n = 2

Consider the worked cases shown below.
> print(dat)
                                   molecule        recordedvalue
1  Nc1cc[nH]c(=O)n1 [Metabolite M2, cytosine]  0.0771 % of RA dose
2  CO[C@@H]1[C@H](O)[C@@H](CO)O[C@H]1n1ccc(=O)[nH]c1=O    31.7 % of RA dose
3  O=c1ccn([C@@H]2O[C@H](CO)[C@@H](O)[C@H]2O)c(=O)[nH]1 [Metabolite M1, uridine]   0.156 % of RA dose
4  O=c1cc[nH]c(=O)[nH]1 [Metabolite M3, uracil]    4.03 % of RA dose

Consider now this further molecule.
Request: Item Nc1ccn([C@@H]2O[C@H](CO)[C@@H](O)[C@H]2O)c(=O)n1 [Metabolite M5, cytidine] has what recorded Amount of radiolabeled component, total excretion (urine + feces)?
Result: 1.94 % of RA dose

----------
Kindly supply the reported AUC0‐48 h of radiolabeled component in plasma (% AUC of total RA) values for the records listed here.
# experimentSummary: Plasma metabolite profiles
# Format: in vivo, male CD‐1 mice
# experimentalContext: single iv 1 mg/kg, pool of 2 mice

> print(dat)
                                   compound           recordedvalue
1  O=c1ccn([C@@H]2O[C@H](CO)[C@@H](O)[C@H]2O)c(=O)[nH]1 [Metabolite M1, uridine]  32.8 % AUC of total RA
2  Nc1cc[nH]c(=O)n1 [Metabolite M2, cytosine]  8.11 % AUC of total RA
3  O=c1cc[nH]c(=O)[nH]1 [Metabolite M3, uracil]  23.6 % AUC of total RA

Request: Consider the compound CO[C@@H]1[C@H](O)[C@@H](CO)O[C@H]1n1ccc(=O)[nH]c1=O and give its measured AUC0‐48 h of radiolabeled component in plasma (% AUC of total RA).
Result: 5.89 % AUC of total RA

----------
# experimentSummary: Plasma metabolite profiles
# Format: in vivo, male CD‐1 mice
# experimentalContext: male, CD-1, mouse, plasma, iv, 1 mg/kg
attributeMeasured: AUC (µM·h)
Numbers only, in µM·h.

Check out these entries, answers already filled in.
> print(dat)
                                   compound  recordedvalue
1  Nc1ccn([C@@H]2O[C@H](CO)[C@@H](O)[C@H]2O)c(=O)n1 [Metabolite M5, cytidine]         0.0639
2  CO[C@@H]1[C@H](O)[C@@H](CO)O[C@H]1n1ccc(=O)[nH]c1=O [2′O‐methyluridine, 2′‐O‐methyluridine]          0.335
3  O=c1ccn([C@@H]2O[C@H](CO)[C@@H](O)[C@H]2O)c(=O)[nH]1 [Metabolite M1, uridine]           1.87
4  O=c1cc[nH]c(=O)[nH]1 [Metabolite M3, uracil]           1.34

Request: Value lookup for AUC; key = Nc1cc[nH]c(=O)n1 [Metabolite M2, cytosine]
Result: 0.461

----------
# experimentSummary: Plasma metabolite profiles
# Assay type: in vivo, male CD‐1 mice
# experimentalContext: male, CD-1, mouse, plasma, iv, 1 mg/kg
Decide using concentration at 2 h alone. Strictly below 90 nM: Met. Equal to or above 90 nM: Not met.

Known results for compounds:
> print(dat)
                                   compound  classassignment
1  Nc1ccn([C@@H]2O[C@H](CO)[C@@H](O)[C@H]2O)c(=O)n1 [Metabolite M5, cytidine]              Met
2  Nc1cc[nH]c(=O)n1 [Metabolite M2, cytosine]              Met
3  O=c1ccn([C@@H]2O[C@H](CO)[C@@H](O)[C@H]2O)c(=O)[nH]1 [Metabolite M1, uridine]          Not met

From here, focus on the item given below.
Request: Field: below-cutoff. Rule: recorded concentration at 2 h strictly less than 90 nM. Subject: CO[C@@H]1[C@H](O)[C@@H](CO)O[C@H]1n1ccc(=O)[nH]c1=O
Result: Met

----------
# experimentSummary: Plasma metabolite profiles
# Type: in vivo, male CD‐1 mice
# experimentalContext: male, CD-1, mouse, plasma, iv, 1 mg/kg
Please respond with reported concentration at 1 h for every item in the list.
Answers are plain numbers, in nM.

Would you please look over these solved cases?
> print(dat)
                                   compound     attributemeasured  recordedvalue
1  CO[C@@H]1[C@H](O)[C@@H](CO)O[C@H]1n1ccc(=O)[nH]c1=O  concentration at 1 h           22.3
2  O=c1cc[nH]c(=O)[nH]1 [Metabolite M3, uracil]  concentration at 1 h            109

Take each entry in turn and give its concentration at 1 h.
1. Nc1cc[nH]c(=O)n1 [Metabolite M2, cytosine]
2. O=c1ccn([C@@H]2O[C@H](CO)[C@@H](O)[C@H]2O)c(=O)[nH]1 [Metabolite M1, uridine]

Result:
1. 33.3
2. 108

----------
# experimentSummary: Plasma metabolite profiles
# Type: in vivo, male CD‐1 mice
# experimentalContext: male, CD-1, mouse, plasma, iv, 1 mg/kg
Please respond with reported concentration at 0.083 h for every item in the list.
Answers are plain numbers, in nM.

> print(dat)
                                   compound         attributemeasured  recordedvalue
1  O=c1cc[nH]c(=O)[nH]1 [Metabolite M3, uracil]  concentration at 0.083 h           14.2
2  CO[C@@H]1[C@H](O)[C@@H](CO)O[C@H]1n1ccc(=O)[nH]c1=O [2′O‐methyluridine, 2′‐O‐methyluridine]  concentration at 0.083 h            402

Then there is this compound:
Request: Using the record for O=c1ccn([C@@H]2O[C@H](CO)[C@@H](O)[C@H]2O)c(=O)[nH]1 [Metabolite M1, uridine] , report its concentration at 0.083 h.
Result: 5.1
